studyTarget: Human TRPV3 (Homo sapiens, UniProt Q8NET8)
Construct: expressed in transfected cells; host or cells: CHO cells (selected with G-418)
Sequence (Q8NET8 whole entry): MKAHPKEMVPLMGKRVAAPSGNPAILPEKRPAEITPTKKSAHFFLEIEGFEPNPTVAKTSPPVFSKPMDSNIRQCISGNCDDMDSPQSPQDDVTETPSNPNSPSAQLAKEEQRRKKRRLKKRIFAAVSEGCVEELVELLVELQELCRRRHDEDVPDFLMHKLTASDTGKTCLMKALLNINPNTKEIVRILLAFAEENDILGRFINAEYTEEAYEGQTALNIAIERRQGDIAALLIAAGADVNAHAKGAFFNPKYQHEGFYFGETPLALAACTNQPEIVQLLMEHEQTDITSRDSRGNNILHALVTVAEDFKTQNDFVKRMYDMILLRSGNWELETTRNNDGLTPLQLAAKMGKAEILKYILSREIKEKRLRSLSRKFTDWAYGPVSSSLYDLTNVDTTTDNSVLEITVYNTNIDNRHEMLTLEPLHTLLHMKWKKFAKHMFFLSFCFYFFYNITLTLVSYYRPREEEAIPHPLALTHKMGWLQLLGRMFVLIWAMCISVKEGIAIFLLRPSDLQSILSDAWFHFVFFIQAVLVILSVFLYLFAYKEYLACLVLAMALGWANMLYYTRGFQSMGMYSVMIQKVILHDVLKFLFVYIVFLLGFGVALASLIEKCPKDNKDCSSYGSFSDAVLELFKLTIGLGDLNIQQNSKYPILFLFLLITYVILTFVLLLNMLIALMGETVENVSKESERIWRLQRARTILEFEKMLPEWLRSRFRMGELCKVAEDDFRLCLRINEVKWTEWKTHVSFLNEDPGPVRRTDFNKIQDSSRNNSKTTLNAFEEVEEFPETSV
experimentNotes: Screening for TRPV3 antagonist using the 45Calcium uptake assay (inhibition of 2-APB induced cellular uptake of radioactive calcium)
Type: cell-based
conditionDescription: CHO, 1.0 μM test compound; Human TRPV3 expressing CHO cells; 2-APB 500 μM; read-out: Percentage inhibition at 1.0 μM
Would you mind labelling by inhibition at 1 µM? At or over 30% is label 1, under is label 0.

Examples with answers:
COc1cccc(/C=C/c2nc3ccccn3c(=O)c2-c2ccc(SC)cc2)c1OC1CCCC1    label 1
COc1cccc(/C=C/c2nc3ccccn3c(=O)c2-c2ccc(C(C)=O)cc2)c1OC1CCCC1    label 1

// inclusive: inhibition at 1 µM at least 30%? input: O=c1c(-c2ccc(C(F)(F)F)cc2)c(/C=C/c2cccc3c2OCO3)nc2ccccn12
label 0

// inclusive: inhibition at 1 µM at least 30%? input: COc1cccc(/C=C/c2nc3ccccn3c(=O)c2-c2ccncc2)c1OC1CCCC1
label 0

// inclusive: inhibition at 1 µM at least 30%? input: CCCCCCOc1c(/C=C/c2nc3ccccn3c(=O)c2-c2ccc(C#N)cc2)cccc1OC
label 1

// inclusive: inhibition at 1 µM at least 30%? input: COc1cccc(/C=C/c2nc3ccccn3c(=O)c2-c2ccc([N+](=O)[O-])cc2)c1OC1CCCC1
label 1

// inclusive: inhibition at 1 µM at least 30%? input: COc1cccc(/C=C/c2nc3ccccn3c(=O)c2-c2cccc(C(F)(F)F)c2)c1OC1CCCC1
label 0

// inclusive: inhibition at 1 µM at least 30%? input: CCCCCOc1c(/C=C/c2nc3ccccn3c(=O)c2-c2ccc(C(F)(F)F)cc2)cccc1OC
label 1

Source listed as patent US8349846B2.
